Test system: HL-60(TB) leukemia
Assay: NCI tumour cell line growth inhibition, 48 h
Observed Property: GI50

Recorded GI50, per entry:
CC[N+](CCCCCCCCCC[N+](CC)(c1ccccn1)c1ccccn1)(c1ccccn1)c1ccccn1 :: 554 nM
C=CCn1c(C)nc2cc(Nc3nc(Nc4ccc5nc(C)n(CC=C)c5c4)c4ccccc4n3)ccc21 :: 1700 nM

stdin: Fill in the blank: the reported GI50 of CCCCCCC/C=C/[C@H]1O[C@]23C(=O)C[C@@]4(C[C@@H](OC5OC(CO)C(O)C(O)C5O)C[C@@H]4[C@H]2C=C1C)OC3=O (stereo partly drawn) is ____.
stdout: 1200 nM
